TARGET OF ASSAY: CDK4-cyclin D1 (Homo sapiens, UniProt P11802)
Sequence (P11802 whole entry): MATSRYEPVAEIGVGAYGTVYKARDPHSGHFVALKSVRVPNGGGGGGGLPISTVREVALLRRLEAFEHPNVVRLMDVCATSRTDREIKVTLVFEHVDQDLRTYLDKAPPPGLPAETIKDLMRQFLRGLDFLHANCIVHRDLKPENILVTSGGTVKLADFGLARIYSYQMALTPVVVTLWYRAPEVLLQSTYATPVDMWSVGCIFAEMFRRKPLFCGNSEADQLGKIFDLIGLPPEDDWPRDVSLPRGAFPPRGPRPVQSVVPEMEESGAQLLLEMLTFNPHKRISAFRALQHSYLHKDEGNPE
Sequence (P24385 whole entry partner): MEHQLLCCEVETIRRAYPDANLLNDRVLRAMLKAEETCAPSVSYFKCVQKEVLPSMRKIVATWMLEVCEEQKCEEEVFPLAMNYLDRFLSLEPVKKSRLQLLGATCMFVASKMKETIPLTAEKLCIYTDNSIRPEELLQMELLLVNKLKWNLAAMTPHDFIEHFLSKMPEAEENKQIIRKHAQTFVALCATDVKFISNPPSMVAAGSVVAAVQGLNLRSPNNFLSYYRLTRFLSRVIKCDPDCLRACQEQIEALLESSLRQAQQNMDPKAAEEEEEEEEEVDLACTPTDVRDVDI
ASSAY INFO: Kinase assay (radioactive phosphate incorporation), CDK4-cyclin D1
Format: biochemical
DETAILS: read-out: Kinase Inhibition pIC50 CDK4-cyclin D1 (converted)
MEASURED QUANTITY: IC50 (µM)

RECORD SMILES	IC50 / µM
CNc1nc(C)c(-c2ccnc(Nc3cccc(N4CCNCC4)c3)n2)s1	1
COCCNS(=O)(=O)c1ccc(Nc2nccc(-c3sc(N)nc3C)n2)cc1	0.501
Cc1nc(N)sc1-c1ccnc(Nc2ccc(S(=O)(=O)NCCO)cc2)n1	1.58
CNc1nc(C)c(-c2ccnc(Nc3ccc(S(=O)(=O)NCCO)cc3)n2)s1	0.501
CNc1nc(C)c(-c2ccnc(Nc3cc(OC)c(OC)c(OC)c3)n2)s1	2
CCNc1nc(C)c(-c2ccnc(Nc3cccc(CC(=O)OCCOC)c3)n2)s1	3.16
CCNc1nc(C)c(-c2ccnc(Nc3ccc(S(=O)(=O)NCc4ccccc4)cc3)n2)s1	7.94
COCCNS(=O)(=O)c1cccc(Nc2nccc(-c3sc(N)nc3C)n2)c1	1.58
Cc1nc(N)sc1-c1ccnc(Nc2cccc(CNS(C)(=O)=O)c2)n1	0.2
Cc1ccc(Nc2nccc(-c3sc(NC(C)(C)C)nc3C)n2)cc1[N+](=O)[O-]	0.316

[a] CNc1nc(C)c(-c2ccnc(Nc3cccc(S(=O)(=O)NC(C)=O)c3)n2)s1
[b] Cc1nc(N)sc1-c1ccnc(Nc2cccc(S(=O)(=O)NCCO)c2)n1
[c] CNc1nc(C)c(-c2ccnc(Nc3cccc(S(=O)(=O)NC)c3)n2)s1
Order by IC50, ascending. Response format: the labels, sorted as the prompt asks. c, b, a
(c: 0.0398 µM, b: 0.126 µM, a: 0.501 µM)

[A] CNS(=O)(=O)c1cccc(Nc2nccc(-c3sc(C)nc3C)n2)c1
[B] CCNS(=O)(=O)c1cccc(Nc2nccc(-c3sc(NC)nc3C)n2)c1
[C] CNc1nc(C)c(-c2ccnc(Nc3ccc(CNC(C)=O)cc3)n2)s1
[D] CNc1nc(C)c(-c2ccnc(Nc3cccc(N4CCN(C(C)=O)CC4)c3)n2)s1
Order by IC50, ascending. Response format: the labels, sorted as the prompt asks. B, C, A, D

[P] CCNc1nc(C)c(-c2ccnc(Nc3ccc(CNC(C)=O)cc3)n2)s1
[Q] CCNc1nc(C)c(-c2ccnc(NCc3cccnc3)n2)s1
[R] Cc1nc(N)sc1-c1ccnc(Nc2ccc(N3CCNCC3)cc2)n1
Could you please sort these 3 entries by IC50 from high to low? Response format: the labels, sorted as the prompt asks. Q, R, P
(Q: 3.16 µM, R: 0.251 µM, P: 0.0631 µM)
